Reported GI50 values for the following compounds.
- Test system: SNB-19
- measurement-notes: Growth inhibition of human SNB19 cells after 48 hrs by sulforhodamine B assay
- Assay type: functional
- details: SNB-19, 48 h
metric-name: GI50 (µM)

>  <smiles-str>
CC(=O)/C(=C\c1c(-c2ccccc2)[nH]c2ccccc12)S(C)(=O)=O

>  <reported-measurement>
3.4

$$$$
>  <smiles-str>
COc1ccc(-c2[nH]c3ccc(OC)cc3c2/C=C(\C#N)S(=O)(=O)c2ccccc2)cc1

>  <reported-measurement>
3.2

$$$$
>  <smiles-str>
N#CC(C#N)=Cc1c(-c2ccccc2)[nH]c2ccccc12

>  <reported-measurement>
5.7

$$$$
>  <smiles-str>
COC(=O)/C(=C\c1c(-c2ccccc2)[nH]c2ccccc12)S(C)(=O)=O

>  <reported-measurement>
8.7

$$$$

====

- Test system: MCF7
- measurement-notes: Antiproliferative activity against human MCF7 cells after 3 days incubation by alamar blue method
- Format: functional
- details: MCF7, 72 h

>  <smiles-str>
CC(=O)/C(=C\c1c(-c2ccccc2)[nH]c2ccccc12)S(C)(=O)=O

>  <assayed-target>
MCF7

>  <GI50>
> 10 µM

$$$$
>  <smiles-str>
COc1ccc(-c2[nH]c3ccccc3c2/C=C(\C#N)S(=O)(=O)c2ccccc2)cc1

>  <assayed-target>
MCF7

>  <GI50>
5.6 µM

$$$$
>  <smiles-str>
N#C/C(=C\c1c(-c2ccccc2)[nH]c2ccccc12)C(=O)c1cccs1

>  <assayed-target>
MCF7

>  <GI50>
> 10 µM

$$$$
>  <smiles-str>
COc1ccc(-c2[nH]c3ccccc3c2C=C(C#N)C#N)cc1

>  <assayed-target>
MCF7

>  <GI50>
> 10 µM

$$$$
>  <smiles-str>
CS(=O)(=O)/C(C#N)=C/c1c(-c2ccccc2)[nH]c2ccccc12

>  <assayed-target>
MCF7

>  <GI50>
> 10 µM

$$$$

====

- Tested on: SK-OV-3
- measurement-notes: Growth inhibition of human SKOV3 cells after 48 hrs by sulforhodamine B assay
- Type: functional
- details: SK-OV-3, 48 h

>  <smiles-str>
CC(=O)/C(=C\c1c(-c2ccccc2)[nH]c2ccccc12)S(=O)(=O)c1ccccc1

>  <assayed-target>
SK-OV-3

>  <GI50>
2.9 µM

$$$$
>  <smiles-str>
N#C/C(=C\c1c(-c2ccccc2)[nH]c2ccccc12)S(=O)(=O)c1ccccc1

>  <assayed-target>
SK-OV-3

>  <GI50>
6.8 µM

$$$$
>  <smiles-str>
N#C/C(=C\c1c(-c2ccccc2)[nH]c2ccccc12)C(=O)c1ccccc1

>  <assayed-target>
SK-OV-3

>  <GI50>
15.2 µM

$$$$
>  <smiles-str>
CCOC(=O)C(=Cc1c(-c2ccccc2)[nH]c2ccccc12)C(=O)OCC

>  <assayed-target>
SK-OV-3

>  <GI50>
13.6 µM

$$$$
>  <smiles-str>
O=C(/C(=C\c1c(-c2ccccc2)[nH]c2ccccc12)S(=O)(=O)c1ccccc1)c1ccccc1

>  <assayed-target>
SK-OV-3

>  <GI50>
7.6 µM

$$$$
>  <smiles-str>
COc1ccc2[nH]c(-c3ccccc3)c(/C=C(\C#N)S(=O)(=O)c3ccccc3)c2c1

>  <assayed-target>
SK-OV-3

>  <GI50>
7.1 µM

$$$$
>  <smiles-str>
CC(=O)/C(=C\c1c(-c2ccccc2)[nH]c2ccccc12)S(C)(=O)=O

>  <assayed-target>
SK-OV-3

>  <GI50>
4.4 µM

$$$$
>  <smiles-str>
COC(=O)/C(=C\c1c(-c2ccccc2)[nH]c2ccccc12)S(C)(=O)=O

>  <assayed-target>
SK-OV-3

>  <GI50>
12.1 µM

$$$$
>  <smiles-str>
COc1ccc(-c2[nH]c3ccccc3c2/C=C(\C#N)S(=O)(=O)c2ccccc2)cc1

>  <assayed-target>
SK-OV-3

>  <GI50>
0.528 µM

$$$$
>  <smiles-str>
COC(=O)/C(=C\c1c(C)[nH]c2ccccc12)S(=O)(=O)c1ccccc1

>  <assayed-target>
SK-OV-3

>  <GI50>
9.3 µM

$$$$
>  <smiles-str>
COc1ccc(-c2[nH]c3ccccc3c2C=C(C#N)C#N)cc1

>  <assayed-target>
SK-OV-3

>  <GI50>
0.445 µM

$$$$
>  <smiles-str>
COc1ccc(-c2[nH]c3ccc(OC)cc3c2C=C(C#N)C#N)cc1

>  <assayed-target>
SK-OV-3

>  <GI50>
0.892 µM

$$$$
>  <smiles-str>
COc1ccc2[nH]c(-c3ccccc3)c(C=C(C#N)C#N)c2c1

>  <assayed-target>
SK-OV-3

>  <GI50>
4.8 µM

$$$$
>  <smiles-str>
N#CC(C#N)=Cc1c(-c2ccccc2)[nH]c2ccccc12

>  <assayed-target>
SK-OV-3

>  <GI50>
6 µM

$$$$
>  <smiles-str>
COc1ccc(-c2[nH]c3ccc(OC)cc3c2/C=C(\C#N)S(=O)(=O)c2ccccc2)cc1

>  <assayed-target>
SK-OV-3

>  <GI50>
0.901 µM

$$$$

====

- Tested on: SN12C
- measurement-notes: Growth inhibition of human SN12C cells after 48 hrs by sulforhodamine B assay
- Format: functional
Lab note: class by GI50, see bottom range = under 5 µM, center range = from 5 µM up to 6 µM, top range = 6 µM and over

>  <smiles-str>
COC(=O)/C(=C\c1c(C)[nH]c2ccccc12)S(=O)(=O)c1ccccc1

>  <class>
bottom range

$$$$
>  <smiles-str>
COc1ccc2[nH]c(-c3ccccc3)c(C=C(C#N)C#N)c2c1

>  <class>
bottom range

$$$$
>  <smiles-str>
COc1ccc2[nH]c(-c3ccccc3)c(/C=C(\C#N)S(=O)(=O)c3ccccc3)c2c1

>  <class>
top range

$$$$
>  <smiles-str>
COc1ccc(-c2[nH]c3ccccc3c2C=C(C#N)C#N)cc1

>  <class>
bottom range

$$$$
>  <smiles-str>
N#C/C(=C\c1c(-c2ccccc2)[nH]c2ccccc12)S(=O)(=O)c1ccccc1

>  <class>
center range

$$$$
>  <smiles-str>
COc1ccc(-c2[nH]c3ccc(OC)cc3c2C=C(C#N)C#N)cc1

>  <class>
top range

$$$$
>  <smiles-str>
COc1ccc(-c2[nH]c3ccccc3c2/C=C(\C#N)S(=O)(=O)c2ccccc2)cc1

>  <class>
bottom range

$$$$
>  <smiles-str>
N#CC(C#N)=Cc1c(-c2ccccc2)[nH]c2ccccc12

>  <class>
top range

$$$$
>  <smiles-str>
N#C/C(=C\c1c(-c2ccccc2)[nH]c2ccccc12)C(=O)c1ccccc1

>  <class>
center range

$$$$

====

- Test system: UO-31
- measurement-notes: Growth inhibition of human UO31 cells after 48 hrs by sulforhodamine B assay
- Type: functional
- details: UO-31, 48 h
metric-name: GI50 (µM)

>  <smiles-str>
COc1ccc(-c2[nH]c3ccccc3c2/C=C(\C#N)S(=O)(=O)c2ccccc2)cc1

>  <reported-measurement>
4.7

$$$$
>  <smiles-str>
COC(=O)/C(=C\c1c(C)[nH]c2ccccc12)S(=O)(=O)c1ccccc1

>  <reported-measurement>
4.4

$$$$
>  <smiles-str>
COc1ccc(-c2[nH]c3ccccc3c2C=C(C#N)C#N)cc1

>  <reported-measurement>
2.8

$$$$

====

- measurement-notes: Growth inhibition of human RXF393 cells after 48 hrs by sulforhodamine B assay
- Format: functional
- details: RXF 393, 48 h
Binarize GI50 at 4 µM; below is condition met, at or above is condition not met.

>  <smiles-str>
COC(=O)/C(=C\c1c(-c2ccccc2)[nH]c2ccccc12)S(C)(=O)=O

>  <class>
condition not met

$$$$
>  <smiles-str>
N#CC(C#N)=Cc1c(-c2ccccc2)[nH]c2ccccc12

>  <class>
condition met

$$$$
>  <smiles-str>
COc1ccc(-c2[nH]c3ccc(OC)cc3c2C=C(C#N)C#N)cc1

>  <class>
condition not met

$$$$
>  <smiles-str>
CCOC(=O)C(=Cc1c(-c2ccccc2)[nH]c2ccccc12)C(=O)OCC

>  <class>
condition met

$$$$
>  <smiles-str>
COC(=O)/C(=C\c1c(C)[nH]c2ccccc12)S(=O)(=O)c1ccccc1

>  <class>
condition met

$$$$
>  <smiles-str>
COc1ccc(-c2[nH]c3ccccc3c2C=C(C#N)C#N)cc1

>  <class>
condition met

$$$$
>  <smiles-str>
N#C/C(=C\c1c(-c2ccccc2)[nH]c2ccccc12)C(=O)c1ccccc1

>  <class>
condition not met

$$$$
>  <smiles-str>
O=C(/C(=C\c1c(-c2ccccc2)[nH]c2ccccc12)S(=O)(=O)c1ccccc1)c1ccccc1

>  <class>
condition not met

$$$$
>  <smiles-str>
N#C/C(=C\c1c(-c2ccccc2)[nH]c2ccccc12)S(=O)(=O)c1ccccc1

>  <class>
condition met

$$$$
>  <smiles-str>
COc1ccc(-c2[nH]c3ccccc3c2/C=C(\C#N)S(=O)(=O)c2ccccc2)cc1

>  <class>
condition met

$$$$

Where do these numbers come from? They come from ChEMBL document CHEMBL3616442.
